Assay: Selectivity index, ratio of CC50 for cytotoxicity against human A549 cells harboring ACE2-CI33 assessed as cell viability by celltiter glo assay to EC50 for antiviral activity against SARS-CoV-2 Wuhan infected in human A549 cells harboring ACE2-Cl33
Format: toxicity, cell-based
Conditions: read-out: Ratio CC50/EC50
Measurement Name: selectivity ratio

Compound	Measurement Name	Obs Value
CN(C)CCCCNCc1ccc(-c2ccc3ccc4ccc(-c5ccc(CNCCCCN(C)C)cc5)nc4c3n2)cc1	selectivity ratio	> 1.09
CCN(CC)CCCCNCc1ccc(-c2cc3c(ccn3-c3ccccc3)c(-c3ccc(CNCCCCN(CC)CC)cc3)n2)cc1	selectivity ratio	> 13.9
CN(C)CCCNCc1ccc(-c2cn(-c3ccc(CNCCCN(C)C)cc3)c3ncnc(-c4ccc(CNCCCN(C)C)cc4)c23)cc1	selectivity ratio	> 1.43
CN(C)CCCCNCc1ccc(-c2nc(-c3ccccc3)c3ccn(-c4ccc(CNCCCCN(C)C)cc4)c3n2)cc1	selectivity ratio	2.64
CN(C)CCCCCNCc1ccc(-c2cc3c(ccn3-c3ccccc3)c(-c3ccc(CNCCCCCN(C)C)cc3)n2)cc1	selectivity ratio	8.18
CN(C)CCCCNCc1ccc(-c2cn(-c3ccccc3)c3ncnc(-c4ccc(CNCCCCN(C)C)cc4)c23)cc1	selectivity ratio	> 9.3
O=c1c(O)cc([C@H]2Oc3cc(O)cc(O)c3C[C@H]2O)cc2c([C@H]3Oc4cc(O)cc(O)c4C[C@H]3O)cc(O)c(O)c12 [THEAFLAVIN]	selectivity ratio	> 83.3
CN1CCN(CCCCNCc2ccc(-c3cc(-c4ccc(CNCCCCN5CCN(C)CC5)cc4)c4ccn(-c5ccccc5)c4c3)cc2)CC1	selectivity ratio	2.74

====

Experiment: Selectivity index, ratio of CC50 for cytotoxicity against human Caco-2 cells harboring ACE2-CI33 assessed as cell viability by celltiter glo assay to EC50 for antiviral activity against SARS-CoV-2 Wuhan infected in human A549 cells harboring ACE2-Cl33
Type: toxicity, cell-based
Conditions: read-out: Ratio CC50/EC50
Each item that follows carries a reported selectivity ratio.

Compound String	selectivity ratio
CN(C)CCCCCNCc1ccc(-c2cc(-c3ccc(CNCCCCCN(C)C)cc3)c3ccn(-c4ccccc4)c3c2)cc1	1.88
CN(C)CCCCNCc1ccc(-c2cc(-c3ccc(CNCCCCN(C)C)cc3)c3ccn(-c4ccccc4)c3c2)cc1	0.93
CN(C)CCCNCc1ccc(-c2nc(-c3ccc(CNCCCN(C)C)cc3)c3ccn(-c4ccc(CNCCCN(C)C)cc4)c3n2)cc1	≥ 4.57

====

System: SARS-CoV-2
Assay: Antiviral activity against SARS-CoV-2 Wuhan infected in human A549 cells harboring ACE2-Cl33 at 0.1 MOI assessed as inhibition of viral replication pretreated with compounds for 2 hrs followed by infection for 1 hr and measured after 72 hrs post-infection by qRT-PCR analysis
Assay type: functional, organism-based
Settings: Severe acute respiratory syndrome coronavirus 2, Wuhan
pEC50: −log10 of the molar value.
Each item that follows carries a reported pEC50.
Measurement Name: pEC50

Compound String	Value Qualifier	Obs Value
CN(C)CCCCNCc1ccc(-c2ccc3ccc4ccc(-c5ccc(CNCCCCN(C)C)cc5)nc4c3n2)cc1	=	5.04
CN(C)CCCNCc1ccc(-c2nc(-c3ccc(CNCCCN(C)C)cc3)c3ccn(-c4ccc(CNCCCN(C)C)cc4)c3n2)cc1	=	6.36
CN(C)CCCCNCc1ccc(-c2nc(-c3ccccc3)c3ccn(-c4ccc(CNCCCCN(C)C)cc4)c3n2)cc1	=	6.04
CN(C)CCCCCNCc1ccc(-c2cc(-c3ccc(CNCCCCCN(C)C)cc3)c3ccn(-c4ccccc4)c3c2)cc1	=	5.88
CN1CCN(CCCCNCc2ccc(-c3ccc4ccc5ccc(-c6ccc(CNCCCCN7CCN(C)CC7)cc6)nc5c4n3)cc2)CC1	<	5.00
CN(C)CCCCNCc1ccc(-c2cc(-c3ccc(CNCCCCN(C)C)cc3)c3ccn(-c4ccccc4)c3c2)cc1	=	6.28

====

Test: Selectivity index, ratio of CC50 for cytotoxicity against human A549 cells harboring ACE2-CI33 assessed as cell viability by celltiter glo assay to EC50 for antiviral activity against SARS-CoV-2 Wuhan infected in human A549 cells harboring ACE2-Cl33
Format: toxicity, cell-based
Conditions: read-out: Ratio CC50/EC50

Compound	selectivity ratio
CN(C)CCCNCc1ccc(-c2nc(-c3ccc(CNCCCN(C)C)cc3)c3ccn(-c4ccc(CNCCCN(C)C)cc4)c3n2)cc1	> 14.6
CCC(CC)COC(=O)[C@H](C)N[P@](=O)(OC[C@H]1O[C@@](C#N)(c2ccc3c(N)ncnn23)[C@H](O)[C@@H]1O)Oc1ccccc1 [REMDESIVIR]	> 1.18
CN(C)CCCCNCc1ccc(-c2nc(-c3ccc(CNCCCCN(C)C)cc3)c3c(ccn3-c3ccccc3)n2)cc1	> 15.1
CN(C)CCCCNCc1ccc(-c2nc(-c3ccc(CNCCCCN(C)C)cc3)c3ncn(-c4ccccc4)c3n2)cc1	≥ 2.68

Ref: ChEMBL document CHEMBL6177988
